Item-by-item account of remaining activity at 10 µM
- Assayed system: His6-PDK1 (aa 52-556) (Homo sapiens, UniProt O15530)
- Construct: 15 μL His6-PDK1 (aa 52-556) 3.33 ng/well); host or cells: baculovirus-infected insect cells
- Sequence (O15530 52-556): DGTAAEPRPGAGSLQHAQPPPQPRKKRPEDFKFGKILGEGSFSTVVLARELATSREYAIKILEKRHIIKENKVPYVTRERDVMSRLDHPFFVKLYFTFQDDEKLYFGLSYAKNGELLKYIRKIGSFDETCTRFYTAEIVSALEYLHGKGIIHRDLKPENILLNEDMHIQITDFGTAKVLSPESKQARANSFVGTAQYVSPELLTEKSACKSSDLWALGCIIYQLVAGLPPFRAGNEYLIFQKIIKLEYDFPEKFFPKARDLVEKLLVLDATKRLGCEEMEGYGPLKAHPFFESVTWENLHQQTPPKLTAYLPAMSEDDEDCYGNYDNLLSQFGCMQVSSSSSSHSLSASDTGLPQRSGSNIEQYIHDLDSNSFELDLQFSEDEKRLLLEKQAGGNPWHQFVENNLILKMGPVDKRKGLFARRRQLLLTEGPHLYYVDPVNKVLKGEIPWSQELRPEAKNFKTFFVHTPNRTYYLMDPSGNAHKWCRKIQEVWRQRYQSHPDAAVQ
- Test name: PDK1 kinase assay III (with Tween 20)
- Assay type: biochemical
- Measurement context: compound at 10 μM; PDK1 kinase assay III (values without asterisk); read-out: % CTL (residual activity of the enzyme relative to DMSO control)

Ask: Entry under review: Cc1c(C(=O)NCC#Cc2ccc3nc(Nc4ccccc4F)ncc3c2)c(=O)n(Cc2ccc(F)c(F)c2)n1C . Reported remaining activity at 10 µM?
Result: 17.1%

---
Ask: Entry under review: Cc1c(C(=O)NCC#Cc2ccc3nc(Nc4ccc(NC5CCN(C)CC5)c(F)c4)ncc3c2)c(=O)n(Cc2ccc(F)c(F)c2)n1C . Reported remaining activity at 10 µM?
Result: 13.1%

Ask: Okay, and CN1CCC(Nc2ccc(Nc3ncc4cc(/C=C/CNC(=O)c5cn(C)c(=O)n(Cc6ccc(F)c(F)c6)c5=O)ccc4n3)cc2F)CC1 ?
Result: 17.3%

Ask: Okay, and O=C(NCc1ccc(Nc2ncnc3[nH]c(-c4ccccc4)cc23)cc1)c1cncn(Cc2ccc(F)c(F)c2)c1=O ?
Result: 15.7%

Ask: Okay, and CC(C)n1c(=O)c(C#CCNC(=O)c2cncn(Cc3ccc(F)c(F)c3)c2=O)cc2cnc(Nc3ccc(N4CCOCC4)cc3)nc21 ?
Result: 12.9%

Ask: Okay, and Cc1c(C(=O)NCC#Cc2ccc3c(-c4ccc(CN(C)C)cc4)n[nH]c3c2)c(=O)n(Cc2ccc(F)c(F)c2)n1C ?
Result: 16.5%

Ask: Okay, and Cc1c(C#CCNC(=O)c2c(C)n(C)n(Cc3ccc(F)c(F)c3)c2=O)c(=O)n(CCN)c2nc(Nc3ccc(N4CCOCC4)cc3)ncc12 ?
Result: 13.3%

Ask: Okay, and CN(C)Cc1ccc(-c2cc3c(Nc4ccc(CNC(=O)c5cncn(Cc6ccc(F)c(F)c6)c5=O)cc4)ncnc3[nH]2)cc1 ?
Result: 20.9%

Ask: Okay, and CN(C)Cc1ccc(Nc2ncc3cc(/C=C/CNC(=O)c4cncn(Cc5ccc(F)c(F)c5)c4=O)ccc3n2)cc1 ?
Result: 11.1%
